# tested-on: wild-type human cardiac sodium channel, hNav1.5 (late INa) (Homo sapiens, UniProt Q14524)
# Sequence (Q14524 whole entry): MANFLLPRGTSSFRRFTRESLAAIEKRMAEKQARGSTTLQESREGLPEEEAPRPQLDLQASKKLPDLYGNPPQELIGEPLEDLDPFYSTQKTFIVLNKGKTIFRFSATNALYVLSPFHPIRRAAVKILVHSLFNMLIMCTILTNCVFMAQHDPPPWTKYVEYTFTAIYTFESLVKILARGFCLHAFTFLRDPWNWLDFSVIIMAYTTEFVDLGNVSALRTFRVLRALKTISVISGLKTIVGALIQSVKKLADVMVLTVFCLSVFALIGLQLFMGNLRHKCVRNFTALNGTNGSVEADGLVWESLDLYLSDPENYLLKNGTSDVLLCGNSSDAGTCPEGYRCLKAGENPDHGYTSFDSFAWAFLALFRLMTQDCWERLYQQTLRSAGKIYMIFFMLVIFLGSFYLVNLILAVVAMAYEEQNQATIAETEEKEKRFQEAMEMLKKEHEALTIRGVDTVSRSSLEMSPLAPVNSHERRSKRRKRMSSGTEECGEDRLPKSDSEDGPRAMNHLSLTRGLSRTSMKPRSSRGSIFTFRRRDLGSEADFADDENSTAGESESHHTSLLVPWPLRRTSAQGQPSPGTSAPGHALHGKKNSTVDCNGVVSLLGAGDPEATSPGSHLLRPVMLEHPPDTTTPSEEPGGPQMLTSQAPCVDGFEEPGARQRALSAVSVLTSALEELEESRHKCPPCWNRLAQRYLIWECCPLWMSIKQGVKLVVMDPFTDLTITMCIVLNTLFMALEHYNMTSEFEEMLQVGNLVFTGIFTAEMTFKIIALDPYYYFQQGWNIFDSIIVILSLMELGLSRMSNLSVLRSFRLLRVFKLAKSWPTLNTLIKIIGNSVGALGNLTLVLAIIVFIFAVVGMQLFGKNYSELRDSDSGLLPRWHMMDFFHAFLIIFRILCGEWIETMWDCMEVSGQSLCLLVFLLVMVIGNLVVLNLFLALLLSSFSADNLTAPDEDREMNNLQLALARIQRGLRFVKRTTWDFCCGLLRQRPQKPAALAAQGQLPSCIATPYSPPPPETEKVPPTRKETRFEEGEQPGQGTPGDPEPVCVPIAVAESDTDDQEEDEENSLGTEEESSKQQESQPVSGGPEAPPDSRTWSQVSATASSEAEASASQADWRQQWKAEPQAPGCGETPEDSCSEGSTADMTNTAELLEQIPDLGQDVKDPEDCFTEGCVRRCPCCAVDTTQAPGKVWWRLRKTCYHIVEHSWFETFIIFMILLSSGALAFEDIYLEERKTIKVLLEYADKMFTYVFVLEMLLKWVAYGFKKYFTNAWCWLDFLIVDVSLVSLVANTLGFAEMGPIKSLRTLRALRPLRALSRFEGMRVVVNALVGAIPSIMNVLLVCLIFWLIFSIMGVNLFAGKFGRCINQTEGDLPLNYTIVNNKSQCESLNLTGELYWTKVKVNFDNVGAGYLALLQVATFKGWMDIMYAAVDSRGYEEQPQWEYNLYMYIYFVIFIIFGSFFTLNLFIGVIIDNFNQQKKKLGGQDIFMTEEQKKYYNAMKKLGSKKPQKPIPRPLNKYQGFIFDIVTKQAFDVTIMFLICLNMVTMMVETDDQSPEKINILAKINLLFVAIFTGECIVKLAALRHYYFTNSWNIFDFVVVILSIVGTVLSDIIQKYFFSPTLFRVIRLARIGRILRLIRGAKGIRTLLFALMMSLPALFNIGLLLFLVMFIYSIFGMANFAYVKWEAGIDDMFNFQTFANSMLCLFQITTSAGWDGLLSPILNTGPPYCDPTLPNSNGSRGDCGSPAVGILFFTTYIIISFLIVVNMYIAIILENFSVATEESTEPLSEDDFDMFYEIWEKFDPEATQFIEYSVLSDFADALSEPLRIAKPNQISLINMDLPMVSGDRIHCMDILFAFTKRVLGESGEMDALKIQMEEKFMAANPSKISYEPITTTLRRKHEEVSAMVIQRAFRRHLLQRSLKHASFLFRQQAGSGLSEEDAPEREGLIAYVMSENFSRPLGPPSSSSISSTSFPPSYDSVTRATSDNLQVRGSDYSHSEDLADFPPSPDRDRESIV
# protocol-details: Late INa screening assay (QPatch whole cell patch clamp)
# Format: cell-based
# study-conditions: percent block of late INa, compound at 1 μM, 10 μM Tefluthrin, HEK293 hNav1.5; read-out: Late INa 1 μM
Please mark yes if the recorded inhibition at 1 µM is equal to or greater than 30%, and no if it falls below.

Completed entries (count: 8):
compound="O=C1c2cc(-c3ccc(OC(F)(F)F)cc3)ccc2CCN1Cc1ccccn1 [IX-2]" label_value=yes
compound="Cn1cncc1C(=O)N1CCc2ccc(-c3ccc(C(F)(F)F)cc3)cc2C1 [IX-56]" label_value=no
compound="Cc1noc(Cn2nnc3ccc(-c4ccc(Oc5ccc(Cl)cc5)cc4)cc3c2=O)n1 [II-16]" label_value=yes
compound="O=C(Nc1ccccc1)N1CCc2ccc(-c3ccc(C(F)(F)F)cc3)cc2C1 [IX-42]" label_value=no
compound="O=C1c2cc(-c3ccc(OC(F)(F)F)cc3)ccc2OCN1Cc1ccccc1 [VIII-23]" label_value=yes
compound="O=C(N1CCOCC1)N1CCc2ccc(-c3ccc(C(F)(F)F)cc3)cc2C1 [IX-52]" label_value=no
compound="CC1(O)CN(C(=O)N2CCc3ccc(-c4ccc(C(F)(F)F)cc4)cc3C2)C1 [IX-112]" label_value=no
compound="O=C(N1CCc2ccc(-c3ccc(C(F)(F)F)cc3)cc2C1)N1CC(CO)C1 [IX-113]" label_value=no

Answer whether inhibition at 1 µM of Cc1noc(Cn2nnc3ccc(-c4ccc(C5CC5)cc4)cc3c2=O)n1 [II-73] is greater than or equal to 30%. yes

Answer whether inhibition at 1 µM of O=C1c2cc(-c3ccc(C(F)(F)F)cc3)ccc2SCN1Cc1ncccn1 [Compound X-4] is greater than or equal to 30%. yes

Answer whether inhibition at 1 µM of O=C(c1cccnn1)N1CCc2ccc(-c3ccc(C(F)(F)F)cc3)cc2C1 [IX-17] is greater than or equal to 30%. yes

Answer whether inhibition at 1 µM of CC(Cn1ncc2ccc(-c3ccc(OC(F)(F)F)cc3)cc2c1=O)n1cccn1 (stereo not drawn) [III-38] is greater than or equal to 30%. yes

Answer whether inhibition at 1 µM of O=C1c2cc(-c3ccc(C(F)(F)F)cc3)ccc2OCN1Cc1ncccn1 [VIII-19] is greater than or equal to 30%. yes

Answer whether inhibition at 1 µM of Cc1nc(Cn2cnc3ccc(-c4ccc(OC(F)(F)F)cc4)cc3c2=O)no1 [IV-9] is greater than or equal to 30%. yes

Answer whether inhibition at 1 µM of Cc1cc(Cn2nnc3ccc(-c4ccc(OC(F)(F)F)cc4)cc3c2=O)on1 [II-25] is greater than or equal to 30%. yes

Answer whether inhibition at 1 µM of O=c1c2cc(-c3ccc(OC(F)(F)F)cc3)ccc2nnn1Cc1cc(-c2ccccn2)on1 [II-47] is greater than or equal to 30%. yes

Answer whether inhibition at 1 µM of Cc1coc(Cn2nnc3ccc(-c4ccc(OC(F)(F)F)cc4)cc3c2=O)n1 [II-97] is greater than or equal to 30%. yes
